Test system: SNB-19 CNS
Assay: NCI-60 one-dose screen, 48 h
Details: 10 µM unless noted
This is part of a sample that, as a whole, favours compounds with a hit. Of some 83,000 tested, about 20% had one in any assay. The source made the active and inactive calls. Rule for the calls: active = growth percent below 10; inactive = the rest.
Outcome codes: y = active, n = inactive

- COc1ccc(/C=C(\C#N)C(=O)Nc2cccc(Nc3nc(SC)nc(-c4cccc([N+](=O)[O-])c4)c3C#N)c2)cc1OC: n
- N#Cc1nnn(-c2ccc(S(N)(=O)=O)cc2)c1NCC(=O)c1ccccc1: n
- O=S(=O)(Nc1ccc(OC(F)F)cc1)c1ccc(-c2cnc(C3CC3)o2)cc1: n
- CCN(CC)c1ccc2c(c1)Oc1nc(N)c(C#N)c(N)c1C2Sc1ccc(SC)cc1 (stereo not drawn): y
- O=c1nc2oc3ccc4ccccc4c3cc-2s1: n
- O=C(COc1ccc(-c2nc3cc(Cl)c(Cl)cc3[nH]2)cc1)N=Nc1c(O)[nH]c2ccccc12: y
- COc1cc(/C=C/c2cc(O)c3cc(C(C)=O)c(=O)oc3c2)cc2c1O[C@]1(C)CC[C@@H](O)C(C)(C)[C@H]1C2: n
- CON1C(=O)CC[C@]2(C)[C@H]3CC[C@@H]4C([C@@]5(C)CCC(=O)O5)CC[C@@]4(C)[C@]3(C)CC[C@H]2C1(C)C (stereo partly drawn): n
- COc1cccc(Nc2nc(SC)nc(-c3cccc([N+](=O)[O-])c3)c2C#N)c1: n
- CCNc1ncnc2c1cnn2C1CCCO1 (stereo not drawn): n
- C#CCOc1ccc2ncnc(NCc3cccc(NC(=O)CCl)c3)c2c1: n
- Cc1cc(N2CCN(C)CC2)nc(NC2CCCC(Nc3ccnc4cc(Cl)ccc34)C2)n1 (stereo not drawn): y
- COc1ccc2c(c1)O/C(=C\c1cccc(OCC(=O)Nc3nc4c(s3)CCCC4)c1)C2=O: n
- Cn1c(=O)[nH]c(=O)c2nc(CCC(=O)NCCC(=O)O)c(=O)[nH]c21: n
- CN(C)[C@@H]1C(=O)C(C(=O)NCc2nc3[nH]cnc(=S)c3[nH]2)=C(O)[C@@]2(O)C(=O)C3=C(O)c4c(O)cccc4[C@@](C)(O)[C@H]3C[C@@H]12: n
- COc1cccc(-c2nc(SCC(=O)Nc3ccc(C(=O)/C=C/c4ccc(OC)c(OC)c4)cc3)[nH]c(=O)c2C#N)c1: n
- CC1CCNC(C)C1 (stereo not drawn): n
- O=C1CC[C@H](c2ccc(O)c3c2C(=O)[C@@H]2O[C@@H]2C3=O)c2cccc(O)c21: n
- COc1cc2c(cc1O)CC[C@@H]1[C@@H]2CC[C@]2(C)[C@@H](NCCN(C)C)CC[C@@H]12: y
- COc1ccc2[nH]cc(-c3noc(C(=O)c4cn(C)c5ccc(F)cc45)n3)c2c1: n
- O=c1cc(CSc2nnc(SCc3cc(=O)oc4c3ccc3ccccc34)o2)c2ccc3ccccc3c2o1: n
- FC(F)(F)c1nc2c(NCc3ccc(-c4ccccc4)cc3)cccc2[nH]1: n
- CCOc1ccc(C(C)=O)cc1NC(=O)c1cccc(-c2nnn(CC)n2)c1: n
- N#Cc1c(-c2ccc(Cl)cc2)nc(NN=Cc2ccco2)nc1N1CCOCC1: n
- CCCOc1cc2ccccc2cc1C(=O)Nc1nc(N)c2c(ccc3nccc32)[nH]1: y
- COc1ccc(C2Nc3c(c(C(C)(C)C)nn3-c3ccccc3)C(=O)CS2)cc1 (stereo not drawn): n
- CC(C)C[C@@H](NC(=O)[C@@H](Cc1ccccc1)NC(=O)c1cnccn1)B1Oc2ccc(C[C@H](NC(=O)[C@H](Cc3ccc4c(c3)OB([C@@H](CC(C)C)NC(=O)[C@@H](Cc3ccccc3)NC(=O)c3cnccn3)O4)NC(=O)[C@@H](N)CC3CCC4OB([C@@H](CC(C)C)NC(=O)[C@@H](CC5CCCCC5)NC(=O)C5CNCCN5)OC4C3)C(=O)NCCCC[C@@H]3NC(=O)[C@@H](Cc4ccccc4)NC(=O)[C@H](CC(=O)O)NC(=O)CNC(=O)[C@H](CCCNC(=N)N)NC3=O)cc2O1 (stereo partly drawn): y
- Cn1c(=O)c2c(nc3n(-c4ccc(Cl)cc4Cl)c(Sc4nc(-c5ccccc5)c(C#N)c(=O)[nH]4)cn23)n(C)c1=O: n
